- Test system: HCT116 parental cells
- experimentNotes: Proliferation assay (CellTiter-Glo, 10 days of treatment), HCT116 parental
- Assay type: cell-based
- experimentalParameters: Homo sapiens, HCT-116, 240 h
This section presents molecules with their documented IC50 values.

structureSmiles	unitLabel	boundSign	IC50
Cn1ncc(-c2ccc3c(=O)[nH]nc(CN)c3c2)c1-c1ccc2ccccc2c1	nM	=	5070
Cc1cc(Cl)cc(-c2c(-c3ccc4c(=O)[nH]nc(CN)c4c3)cnn2C)c1C#N	nM	=	121
Cn1ncc(-c2ccc3c(=O)[nH]nc(CN)c3c2)c1-c1ccc2ccc(F)cc2c1C#N	nM	=	2150
Cn1ncc(-c2ccc3c(=O)[nH]nc(CN)c3c2)c1-c1c(F)c(Cl)cc(OC2CC2)c1C#N	nM	=	1890
Cn1ncc(-c2ccc3c(=O)[nH]nc(CN)c3c2)c1-c1cc(Cl)c(Cl)cc1C#N	nM	>	10000
CCc1cc(-c2cnn(C)c2-c2ccc3ccccc3c2C#N)cc2c(CN)n[nH]c(=O)c12	nM	=	1560
Cn1ncc(-c2ccc3c(=O)[nH]nc(CN)c3c2)c1-c1cc2ccccc2cc1C#N	nM	=	9630
Cn1ncc(-c2ccc3c(=O)[nH]nc(CN)c3c2)c1-c1ccccc1C#N	nM	=	10000

Data origin: patent US11479551B2
